Kindly state kinase still bound, per cent of control for each of the entries shown.
system: LRRK2 (human), Q5S007 [G2019S]; assay: KINOMEscan competition binding; conditions: compound 10.0 µM
Sequence (Q5S007 whole entry G2019S, looked up): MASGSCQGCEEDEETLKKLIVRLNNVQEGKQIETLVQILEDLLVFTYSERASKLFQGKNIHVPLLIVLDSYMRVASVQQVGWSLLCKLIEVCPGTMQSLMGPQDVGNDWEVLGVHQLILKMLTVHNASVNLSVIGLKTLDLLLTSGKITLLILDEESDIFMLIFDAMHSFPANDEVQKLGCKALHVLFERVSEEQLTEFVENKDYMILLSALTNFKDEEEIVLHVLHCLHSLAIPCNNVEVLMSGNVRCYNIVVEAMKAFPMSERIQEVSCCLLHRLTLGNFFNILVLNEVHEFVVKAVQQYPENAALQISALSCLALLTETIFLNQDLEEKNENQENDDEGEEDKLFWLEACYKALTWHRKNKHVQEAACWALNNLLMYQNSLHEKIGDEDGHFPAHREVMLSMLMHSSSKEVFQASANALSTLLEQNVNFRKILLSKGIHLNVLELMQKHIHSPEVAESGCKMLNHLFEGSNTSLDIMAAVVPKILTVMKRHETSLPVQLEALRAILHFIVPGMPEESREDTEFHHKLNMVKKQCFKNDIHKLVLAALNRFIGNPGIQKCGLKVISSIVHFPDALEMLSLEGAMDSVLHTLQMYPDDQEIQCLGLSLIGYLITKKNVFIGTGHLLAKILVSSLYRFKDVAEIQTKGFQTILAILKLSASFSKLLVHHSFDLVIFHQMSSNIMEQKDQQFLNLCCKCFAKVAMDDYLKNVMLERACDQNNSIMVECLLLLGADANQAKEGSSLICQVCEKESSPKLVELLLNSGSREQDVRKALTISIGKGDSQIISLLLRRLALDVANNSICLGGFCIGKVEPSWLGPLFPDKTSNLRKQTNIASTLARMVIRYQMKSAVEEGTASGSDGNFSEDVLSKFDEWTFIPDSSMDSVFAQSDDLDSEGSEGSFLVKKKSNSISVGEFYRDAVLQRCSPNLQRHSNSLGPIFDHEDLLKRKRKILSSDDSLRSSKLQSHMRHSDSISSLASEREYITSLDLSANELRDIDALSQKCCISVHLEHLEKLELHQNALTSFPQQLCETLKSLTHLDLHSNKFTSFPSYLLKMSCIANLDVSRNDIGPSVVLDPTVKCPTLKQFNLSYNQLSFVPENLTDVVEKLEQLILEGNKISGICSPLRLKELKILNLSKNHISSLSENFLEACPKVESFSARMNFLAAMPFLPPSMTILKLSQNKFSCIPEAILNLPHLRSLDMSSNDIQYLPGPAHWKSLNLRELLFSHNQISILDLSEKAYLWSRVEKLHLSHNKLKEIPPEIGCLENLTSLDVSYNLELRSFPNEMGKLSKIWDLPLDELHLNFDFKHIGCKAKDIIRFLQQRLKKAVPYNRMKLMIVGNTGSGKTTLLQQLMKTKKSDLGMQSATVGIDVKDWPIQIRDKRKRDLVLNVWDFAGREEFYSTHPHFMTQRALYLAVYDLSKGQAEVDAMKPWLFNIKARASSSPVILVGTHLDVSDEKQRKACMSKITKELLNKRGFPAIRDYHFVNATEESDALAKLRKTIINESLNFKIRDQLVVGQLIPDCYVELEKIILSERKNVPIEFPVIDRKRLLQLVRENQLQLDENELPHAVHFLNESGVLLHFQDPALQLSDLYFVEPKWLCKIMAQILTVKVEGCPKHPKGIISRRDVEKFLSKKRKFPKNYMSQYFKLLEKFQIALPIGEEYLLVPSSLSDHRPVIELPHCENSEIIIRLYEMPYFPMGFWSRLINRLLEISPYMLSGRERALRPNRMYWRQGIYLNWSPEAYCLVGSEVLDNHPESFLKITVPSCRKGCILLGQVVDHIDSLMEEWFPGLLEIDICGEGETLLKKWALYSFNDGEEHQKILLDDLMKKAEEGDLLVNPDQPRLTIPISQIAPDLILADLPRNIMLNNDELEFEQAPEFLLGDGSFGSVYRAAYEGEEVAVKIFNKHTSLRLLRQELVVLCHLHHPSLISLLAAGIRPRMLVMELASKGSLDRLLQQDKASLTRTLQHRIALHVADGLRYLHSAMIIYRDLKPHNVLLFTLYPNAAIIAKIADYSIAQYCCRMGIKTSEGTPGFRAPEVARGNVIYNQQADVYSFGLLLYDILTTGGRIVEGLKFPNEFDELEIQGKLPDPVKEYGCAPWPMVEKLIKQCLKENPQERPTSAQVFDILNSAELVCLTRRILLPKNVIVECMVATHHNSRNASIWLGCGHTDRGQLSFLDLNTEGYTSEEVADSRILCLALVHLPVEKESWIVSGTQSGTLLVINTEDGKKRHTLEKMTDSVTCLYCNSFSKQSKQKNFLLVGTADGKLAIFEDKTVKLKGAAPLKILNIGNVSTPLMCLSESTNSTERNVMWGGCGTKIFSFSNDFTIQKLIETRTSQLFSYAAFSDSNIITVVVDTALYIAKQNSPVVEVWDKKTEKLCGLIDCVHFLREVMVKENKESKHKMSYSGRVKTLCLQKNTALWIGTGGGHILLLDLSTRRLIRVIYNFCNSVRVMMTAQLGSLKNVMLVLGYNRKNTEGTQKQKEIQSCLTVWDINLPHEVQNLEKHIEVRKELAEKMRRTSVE
Give the value, in units of %, as a plain number.

For reference, reported kinase still bound, per cent of control for "CC(=O)c1c(C)c2cnc(Nc3ccc(N4CCNCC4)cn3)nc2n(C2CCCC2)c1=O" stands at 39

Entry under test: "CCN(CCO)CCCOc1ccc2c(Nc3cc(CC(=O)Nc4cccc(F)c4)[nH]n3)ncnc2c1" . Its kinase still bound, per cent of control was 100

For record "COc1cc2ncn(-c3cc(OCc4ccccc4C(F)(F)F)c(C(N)=O)s3)c2cc1OC" the listed kinase still bound, per cent of control is 60

What the record says about "CNC(=O)Nc1ccc(-c2nc(N3CC4CCC(C3)O4)c3cnn(C4CCC5(CC4)OCCO5)c3n2)cc1" : kinase still bound, per cent of control is 65

The recorded kinase still bound, per cent of control for entry "CCc1nc(-c2cccc(C)c2)c(-c2ccnc(NC(=O)c3ccccc3)c2)s1" equals 100

The reported value for "CCN1CCN(C(=O)Cc2ccc(Nc3ncc(F)c(Nc4ccc(C(=O)Nc5ccccc5Cl)cc4)n3)cc2)CC1" in terms of kinase still bound, per cent of control is 53

Form field kinase still bound, per cent of control, entry "CCCS(=O)(=O)Nc1ccc(F)c(C(=O)c2c[nH]c3ncc(Cl)cc23)c1F" : 38

* * *

system: BMX (human), P51813 [V600E]; assay: KINOMEscan competition binding; settings: compound 10.0 µM
Sequence (P51813 whole entry, looked up, stated change not applied): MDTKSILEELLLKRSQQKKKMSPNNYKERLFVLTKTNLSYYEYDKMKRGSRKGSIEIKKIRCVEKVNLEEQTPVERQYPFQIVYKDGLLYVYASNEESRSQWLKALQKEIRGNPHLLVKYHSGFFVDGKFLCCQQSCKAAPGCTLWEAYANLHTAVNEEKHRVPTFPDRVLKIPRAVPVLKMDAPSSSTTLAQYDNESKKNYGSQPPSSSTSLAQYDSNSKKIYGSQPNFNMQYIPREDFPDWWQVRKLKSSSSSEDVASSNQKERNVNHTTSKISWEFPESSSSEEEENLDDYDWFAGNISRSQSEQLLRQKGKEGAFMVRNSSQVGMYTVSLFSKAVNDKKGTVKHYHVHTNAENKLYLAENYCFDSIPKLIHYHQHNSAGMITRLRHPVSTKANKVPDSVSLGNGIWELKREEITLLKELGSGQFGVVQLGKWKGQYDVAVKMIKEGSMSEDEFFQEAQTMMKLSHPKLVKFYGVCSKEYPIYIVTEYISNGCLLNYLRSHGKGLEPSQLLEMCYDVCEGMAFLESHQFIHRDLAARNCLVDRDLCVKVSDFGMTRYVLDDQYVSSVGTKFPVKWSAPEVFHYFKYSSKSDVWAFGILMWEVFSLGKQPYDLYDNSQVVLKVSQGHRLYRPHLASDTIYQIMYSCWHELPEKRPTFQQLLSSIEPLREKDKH
ENDPOINT_NAME: kinase still bound, per cent of control (%)
Write it as a number; the unit % goes unstated.

Entry under test: "COc1cc2ncnc(Nc3cccc(Cl)c3)c2cc1OC" . Its kinase still bound, per cent of control was 55

Measured kinase still bound, per cent of control of "Cn1c(=O)n(-c2ccc(C(C)(C)C#N)cc2)c2c3cc(-c4cnc5ccccc5c4)ccc3ncc21" : 100

The recorded kinase still bound, per cent of control for entry "COc1cc(N2CCN(C)CC2)ccc1Nc1ncc2c(n1)N(C)c1ccccc1C(=O)N2C" equals 100

Value of measured kinase still bound, per cent of control for the entry "COc1cc(N2CCN(C)CC2)ccc1Nc1nc(N)c(C(=O)c2c(Cl)cccc2Cl)s1" : 100

response.value for "COc1cc2ncn(-c3cc(OCc4ccccc4C(F)(F)F)c(C(N)=O)s3)c2cc1OC" (field: kinase still bound, per cent of control) = 92

The compound "CCN(CC)CCCCNc1ncc2c(n1)N(C)C(=O)N(c1c(Cl)c(OC)cc(OC)c1Cl)C2" showed kinase still bound, per cent of control equal to 100

"CCC(=O)N1CCN(c2ccc(-n3c(=O)ccc4cnc5ccc(-c6cnc7ccccc7c6)cc5c43)cc2C(F)(F)F)CC1" yielded kinase still bound, per cent of control of 88

Short answer for "C=CC(=O)Nc1cccc(Oc2nc(Nc3ccc(N4CCN(C)CC4)cc3OC)ncc2Cl)c1" : kinase still bound, per cent of control was 100

* * *

system: EGFR (human), P00533 [A750P; 747-749 del]; assay: KINOMEscan competition binding; conditions: compound 10.0 µM
What kinase still bound, per cent of control was measured for each of the following?
Hi! Could you send only the number? It should be in %, unit omitted.

// sample "COc1cc(C(=O)N2CCC(N3CCN(C)CC3)CC2)ccc1Nc1ncc2c(n1)N(C)c1ccccc1C(=O)N2C" , its kinase still bound, per cent of control was 78

The compound listed as "C=CC(=O)Nc1cccc(Oc2nc(Nc3ccc(N4CCN(C)CC4)cc3OC)ncc2Cl)c1" shows kinase still bound, per cent of control equal to 0.05

kinase still bound, per cent of control recorded for this compound, "O=C(Nc1cccc(Nc2ncc(Br)c(NCCc3cnc[nH]3)n2)c1)N1CCCC1" , is 41

* * *

biological target: UniProtKB Q00537; assay: KINOMEscan competition binding; conditions: compound 10.0 µM
Sequence (Q00537 whole entry, looked up): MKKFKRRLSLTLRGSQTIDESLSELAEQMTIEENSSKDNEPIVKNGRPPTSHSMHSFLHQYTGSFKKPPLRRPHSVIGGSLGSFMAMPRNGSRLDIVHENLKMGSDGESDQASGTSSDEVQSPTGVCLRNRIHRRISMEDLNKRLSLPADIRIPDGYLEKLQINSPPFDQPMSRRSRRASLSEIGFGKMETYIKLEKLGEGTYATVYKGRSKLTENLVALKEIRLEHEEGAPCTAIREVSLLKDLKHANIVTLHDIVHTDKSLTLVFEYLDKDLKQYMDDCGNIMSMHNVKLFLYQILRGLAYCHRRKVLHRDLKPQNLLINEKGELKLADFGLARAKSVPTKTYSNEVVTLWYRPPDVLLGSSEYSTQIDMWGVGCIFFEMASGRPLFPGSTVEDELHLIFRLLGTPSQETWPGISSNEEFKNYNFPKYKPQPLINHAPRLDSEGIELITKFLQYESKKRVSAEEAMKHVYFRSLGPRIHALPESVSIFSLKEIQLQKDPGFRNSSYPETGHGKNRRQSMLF
For each entry below, report its kinase still bound, per cent of control value.
Numbers only here, please. The scale is %.

# kinase still bound, per cent of control of "O=c1[nH]c2ccccc2n1C1CCN(Cc2ccc(-c3nc4cc5[nH]cnc5cc4nc3-c3ccccc3)cc2)CC1" = 100

Entry "CC(=O)c1c(C)c2cnc(Nc3ccc(N4CCNCC4)cn3)nc2n(C2CCCC2)c1=O" ; kinase still bound, per cent of control = 2.7

Noted for "CCCS(=O)(=O)Nc1ccc(F)c(C(=O)c2c[nH]c3ncc(Cl)cc23)c1F" : its kinase still bound, per cent of control reads 56

According to the records, this compound "COc1cc2c(Nc3ccc(NC(=O)c4ccccc4)cc3)ncnc2cc1OCCCN1CCOCC1" displays kinase still bound, per cent of control of 94

Value of measured kinase still bound, per cent of control for the entry "CNC(=O)Nc1ccc(-c2nc(N3CC4CCC(C3)O4)c3cnn(C4CCC5(CC4)OCCO5)c3n2)cc1" : 100

The value of kinase still bound, per cent of control measured for the compound "C=CC(=O)Nc1ccc(C(=O)c2sc(Nc3ccc(N4CCN(C)CC4)cc3OC)nc2N)cc1" turned out to be 78

What the record says about "N#C/C(=C1/Nc2ccccc2S1)c1ccnc(NCCc2cccnc2)n1" : kinase still bound, per cent of control is 98

"CCN(CCO)CCCOc1ccc2c(Nc3cc(CC(=O)Nc4cccc(F)c4)[nH]n3)ncnc2c1" yielded kinase still bound, per cent of control of 73

* * *

target: UniProt Q92918; assay: KINOMEscan competition binding; conditions: compound 10.0 µM
ENDPOINT_NAME: kinase still bound, per cent of control

// assay UniProt Q92918, entry "CC(=O)c1c(C)c2cnc(Nc3ccc(N4CCNCC4)cn3)nc2n(C2CCCC2)c1=O" , kinase still bound, per cent of control value = 47%

Form: item "O=c1[nH]c2ccccc2n1C1CCN(Cc2ccc(-c3nc4cc5[nH]cnc5cc4nc3-c3ccccc3)cc2)CC1" ; test system UniProt Q92918; kinase still bound, per cent of control: 51%

Considering "Cc1cn(-c2cc(C(=O)Nc3ccc(C)c(NC(=O)c4ccno4)c3)cc(C(F)(F)F)c2)cn1" , its kinase still bound, per cent of control with UniProt Q92918 was recorded as 100%

Let me check: "CCCS(=O)(=O)Nc1ccc(F)c(C(=O)c2c[nH]c3ncc(Cl)cc23)c1F" , system UniProt Q92918, measured kinase still bound, per cent of control is 70%

* * *

target: UniProtKB O76039; test: KINOMEscan competition binding; settings: compound 10.0 µM
Sequence (O76039 whole entry, looked up): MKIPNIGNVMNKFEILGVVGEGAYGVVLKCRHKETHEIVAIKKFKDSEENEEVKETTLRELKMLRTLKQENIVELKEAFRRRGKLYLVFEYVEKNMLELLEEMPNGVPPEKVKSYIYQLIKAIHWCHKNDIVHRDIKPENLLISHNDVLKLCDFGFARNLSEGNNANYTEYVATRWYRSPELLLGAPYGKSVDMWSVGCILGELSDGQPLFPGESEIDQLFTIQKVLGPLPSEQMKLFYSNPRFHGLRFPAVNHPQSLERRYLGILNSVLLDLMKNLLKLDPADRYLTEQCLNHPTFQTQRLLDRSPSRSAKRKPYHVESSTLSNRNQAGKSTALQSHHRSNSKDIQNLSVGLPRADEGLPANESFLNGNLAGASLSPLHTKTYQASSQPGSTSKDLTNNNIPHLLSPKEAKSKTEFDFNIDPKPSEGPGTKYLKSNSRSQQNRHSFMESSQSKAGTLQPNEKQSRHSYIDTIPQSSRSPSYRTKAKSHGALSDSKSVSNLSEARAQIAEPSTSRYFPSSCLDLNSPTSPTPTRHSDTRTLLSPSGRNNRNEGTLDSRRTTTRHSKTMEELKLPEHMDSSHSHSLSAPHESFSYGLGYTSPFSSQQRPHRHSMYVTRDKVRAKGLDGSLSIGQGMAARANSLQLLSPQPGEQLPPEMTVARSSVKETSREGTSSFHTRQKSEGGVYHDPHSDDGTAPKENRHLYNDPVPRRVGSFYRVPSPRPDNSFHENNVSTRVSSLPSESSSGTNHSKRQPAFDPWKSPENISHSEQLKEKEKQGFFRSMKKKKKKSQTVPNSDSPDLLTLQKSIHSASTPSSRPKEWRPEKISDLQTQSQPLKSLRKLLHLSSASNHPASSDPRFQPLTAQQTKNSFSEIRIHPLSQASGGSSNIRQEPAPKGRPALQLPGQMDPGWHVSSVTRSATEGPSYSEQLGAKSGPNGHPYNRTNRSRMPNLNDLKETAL
Mark Y only for kinase still bound, per cent of control values smaller than 50%; exact matches and larger values are N.

Find out if reported kinase still bound, per cent of control for "COc1cc2c(Nc3ccc(NC(=O)c4ccccc4)cc3)ncnc2cc1OCCCN1CCOCC1" is less than 50% Y

Lab log: compare recorded kinase still bound, per cent of control with 50%; is it strictly lower for "CC(=O)c1c(C)c2cnc(Nc3ccc(N4CCNCC4)cn3)nc2n(C2CCCC2)c1=O" ? Y

# check: kinase still bound, per cent of control < 50% for "CCN1CCN(Cc2ccc(NC(=O)c3ccc(C)c(/C=C/c4cnc5[nH]ccc5c4OC)c3)cc2C(F)(F)F)CC1" N

Could you please tell me whether kinase still bound, per cent of control recorded for CC1=C(C(=O)Nc2cc3cn[nH]c3cc2F)C(c2ccc(C(F)(F)F)cc2)CC(=O)N1 (stereo unspecified) is less than 50%? Y

Lab note: confirm whether the reported kinase still bound, per cent of control for this molecule is below 50%, equality not counting. molecule: "CCCS(=O)(=O)Nc1ccc(F)c(C(=O)c2c[nH]c3ncc(Cl)cc23)c1F" N

* * *

Could you please report measured kinase still bound, per cent of control for the items listed next?
molecular target: SIK1 (human); experiment: KINOMEscan competition binding; settings: compound 10.0 µM
Your answer is read as %, so omit the unit and give the number.

The recorded kinase still bound, per cent of control for entry "CCN(CCO)CCCOc1ccc2c(Nc3cc(CC(=O)Nc4cccc(F)c4)[nH]n3)ncnc2c1" equals 88

// sample "O=c1[nH]c2ccccc2n1C1CCN(Cc2ccc(-c3nc4cc5[nH]cnc5cc4nc3-c3ccccc3)cc2)CC1" , its kinase still bound, per cent of control was 100

The recorded kinase still bound, per cent of control for entry "COc1cc2ncnc(Nc3cccc(Cl)c3)c2cc1OC" equals 100

Form field kinase still bound, per cent of control, entry "COc1cc(N2CCC(C(N)=O)CC2)ccc1Nc1nc(N)c(Cl)c(Nc2ccccc2S(=O)(=O)C(C)C)n1" : 100

kinase still bound, per cent of control measured on "N#Cc1cc(-c2ccnc(Nc3ccc(-n4cnc(-c5cccnc5)n4)cc3)n2)cc(N2CCOCC2)c1" = 73

GET /value?item= CC1=C(C(=O)Nc2cc3cn[nH]c3cc2F)C(c2ccc(C(F)(F)F)cc2)CC(=O)N1 (configuration not stated) &field=kinase still bound, per cent of control returns 77

So for "COc1cc2c(Nc3ccc(NC(=O)c4ccccc4)cc3)ncnc2cc1OCCCN1CCOCC1" , the logged kinase still bound, per cent of control turned out to be 82
